Assay: NFAT Signaling Pathway (AID 444);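 note: carbachol stimulus at about its EC50 of 1 µM final; % is set by controls: 0 for no effect and ±100 for the full control effect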
Details: Jurkat NFAT-bla M1, carbachol, beta-lactamase ratio, 5 h; at 7.69 µM (top of the series) unless noted
Inconclusive results are not listed. Calls of active or inactive are those of the source. Calls come from the whole dose curve; as a rule, active = well fitted curve in either direction with a large enough effect (not every such curve was filed as active); inconclusive = small, poorly fitted or top-dose-only effect, or another doubt; inactive = flat fitted curve, though single readings scatter.
reported metric: activity change, negative = inhibition

Ask: Determine from records and report activity change, negative = inhibition for "CN(C)c1ncnc2ccc(-c3ccccc3C#N)cc12"
Result: 20.3% (inactive)

Ask: Quick one: give measured activity change, negative = inhibition for "FC(F)(F)c1cc(CN2CC3(CCNCC3)C2)cc(C(F)(F)F)c1"
Result: 10.6% (inactive)

Ask: Find the measured activity change, negative = inhibition of "Cc1noc(C)c1-c1cc(NC2CC2)ncn1" and report it.
Result: 3.57% (inactive)

Ask: Determine its reported activity change, negative = inhibition: "Cc1nc2cnc(Nc3ccccc3)nc2n(C2CC2)c1=O"
Result: 1.3% (inactive)

Ask: Identify the reported activity change, negative = inhibition for the following entry. "CCNc1ncc2nc(-c3ccc(Cl)cc3)c(=O)n(C[C@H]3CCCO3)c2n1"
Result: 4.01% (inactive)

Ask: Return activity change, negative = inhibition for the following compound: "O=c1cnc2cnc(Oc3cccc(Cl)c3)nc2n1C[C@H]1CCCO1"
Result: 1.72% (inactive)

Ask: Recall and state the measured activity change, negative = inhibition for "COc1ccc(Oc2ncc3ncc(=O)n(C[C@H]4CCCO4)c3n2)cc1" .
Result: -8.98% (inactive)

Ask: Give a short answer stating reported activity change, negative = inhibition for "O=C(c1csnn1)N1CCC[C@@]2(CCN(Cc3nccs3)C2)C1" .
Result: 2.26% (inactive)

Ask: Fill in activity change, negative = inhibition for record "COc1ccc(-n2c(=O)c(-c3cccs3)nc3cnc(N4CCOCC4)nc32)cc1"
Result: -15.7% (inactive)

Ask: Name the recorded activity change, negative = inhibition of the compound listed here: "CN(C)C(=O)c1ccc(-c2cc(NCc3cccnc3)ncn2)cc1"
Result: 21.1% (inactive)

Ask: Give activity change, negative = inhibition for "O=c1c(-c2ccc(F)cc2)nc2cnc(Oc3ccccc3)nc2n1Cc1cccs1"
Result: 2.8% (inactive)

Ask: Supply recorded activity change, negative = inhibition for "O=C(c1cnccn1)N1CCC2(CC1)CCN(C(c1ccccc1)c1ccccc1)CC2" here.
Result: -20.1% (inactive)

Ask: Let me know recorded activity change, negative = inhibition for "COCC(=O)N1CCC2(CC1)CCN(c1ccccn1)CC2" , thanks.
Result: -3.68% (inactive)

Ask: Quickly give me recorded activity change, negative = inhibition for "Cn1cc(-c2nc3cnc(N4CCNCC4)nc3n(CCC#N)c2=O)c2ccccc21"
Result: 1.75% (inactive)

Ask: Return the recorded activity change, negative = inhibition value; entry: "Cc1nc2cnc(Oc3cccc(Cl)c3)nc2n(CCC#N)c1=O"
Result: 1.8% (inactive)

Ask: Using the record for "COCCn1c(=O)cnc2cnc(N3CCN(C)CC3)nc21" , state its measured activity change, negative = inhibition.
Result: -29.3% (inactive)

Ask: Output measured activity change, negative = inhibition for this item: "CN(C)Cc1ccccc1-c1nc(N(C)C)c2ccccc2n1"
Result: 13.2% (inactive)

Ask: Give the value of activity change, negative = inhibition reported for the following: "CC(=O)N1CCC2(CCCN(C(=O)Nc3cccc(F)c3)C2)CC1"
Result: 13.9% (inactive)

Ask: Given the compound "COc1cccc(Nc2ncc3nc(-c4ccc(F)cc4)c(=O)n(C)c3n2)c1" , write its reported activity change, negative = inhibition.
Result: -16.4% (inactive)

Ask: Identify the reported activity change, negative = inhibition for the following entry. "CN(Cc1ccco1)c1ncncc1-c1ccoc1"
Result: -18.1% (inactive)

Ask: Item "COCCn1c(=O)c(-c2ccc(Cl)cc2)nc2cnc(Oc3cccc(Cl)c3)nc21" : provide activity change, negative = inhibition
Result: -0.0987% (inactive)

Ask: Please report activity change, negative = inhibition for the following compound: "O=C(Oc1ccccc1)N1CCC2(CC1)CN(c1ccccc1)C2"
Result: -1.1% (inactive)

Ask: Return the recorded activity change, negative = inhibition value; entry: "CC(C)CN1CC[C@@]2(CCCN(C(=O)c3cnccn3)C2)C1"
Result: 13.6% (inactive)

Ask: Please indicate activity change, negative = inhibition recorded for "O=c1c(-c2cccs2)nc2cnc(N3CCOCC3)nc2n1Cc1cccs1"
Result: -8.44% (inactive)

Ask: Read the entry "COc1ccc(NC(=O)N2CC3(CCN(C(=O)c4ccco4)CC3)C2)cc1" and write its reported activity change, negative = inhibition.
Result: 3.69% (inactive)

Ask: State its activity change, negative = inhibition: "COCCn1c(=O)c(CCc2ccccc2)nc2cnc(OC)nc21"
Result: -10.3% (inactive)

Ask: Please report the measured activity change, negative = inhibition for "COc1ncc2nc(-c3cccs3)c(=O)n(-c3ccccc3)c2n1"
Result: -4.96% (inactive)

Ask: Specify measured activity change, negative = inhibition for "COc1ccc(-n2c(=O)cnc3cnc(N4CCNCC4)nc32)cc1" .
Result: 0.78% (inactive)

Ask: Name the recorded activity change, negative = inhibition of the item "O=S(=O)(c1ccccc1)N1CCC2(CCN(C(c3ccccc3)c3ccccc3)CC2)CC1" in your answer.
Result: -19.9% (inactive)

Ask: Identify measured activity change, negative = inhibition associated with "COCCn1c(=O)cnc2cnc(Nc3cccc(OC)c3)nc21"
Result: -0.925% (inactive)

Ask: For "O=c1cnc2cncnc2n1Cc1ccc(F)cc1" , write its activity change, negative = inhibition.
Result: -27.6% (inactive)

Ask: Supply recorded activity change, negative = inhibition for "N#CCCn1c(=O)c(-c2cccs2)nc2cnc(OCc3ccccc3)nc21" here.
Result: 6.28% (inactive)

Ask: Give a short answer stating reported activity change, negative = inhibition for "Fc1ccc(Nc2ccnc(-c3ccoc3)n2)cc1" .
Result: 6.01% (inactive)

Ask: Give the measured activity change, negative = inhibition for "COc1ccc(-n2c(=O)c(C)nc3cnc(N4CCNCC4)nc32)cc1"
Result: -7.6% (inactive)

Ask: Provide only the value of recorded activity change, negative = inhibition for "Fc1ccc(Nc2ccnc(-c3ccccc3C(F)(F)F)n2)cc1"
Result: -6.61% (inactive)

Ask: For "CS(=O)(=O)N1CCC2(CCN(C(=O)Nc3cccc(F)c3)CC2)CC1" , write its activity change, negative = inhibition.
Result: 8.92% (inactive)

Ask: Note down activity change, negative = inhibition recorded for "COc1ccccc1-c1nccc(NCc2cnc(C)cn2)n1"
Result: 2.9% (inactive)

Ask: Input "COCCNc1ncncc1-c1ccccc1OC" , output reported activity change, negative = inhibition.
Result: 6.41% (inactive)

Ask: Name the recorded activity change, negative = inhibition of the compound listed here: "CS(=O)(=O)N1CCC2(CC1)CN(C(=O)Nc1cccc(C#N)c1)C2"
Result: 14.4% (inactive)

Ask: Output activity change, negative = inhibition of "COc1cccc(-c2ccc3ncnc(N4CCN(C)CC4)c3c2)c1"
Result: 13% (inactive)

Ask: Input "Clc1ccccc1-c1nc(N2CCNCC2)c2ccccc2n1" , output reported activity change, negative = inhibition.
Result: -0.528% (inactive)

Ask: Kindly indicate its recorded activity change, negative = inhibition. Item: "O=C(Nc1cccc(F)c1)N1CCCC2(CCN(C(=O)c3ccncc3)CC2)C1"
Result: -19.9% (inactive)

Ask: Tell me measured activity change, negative = inhibition for "O=C(c1csnn1)N1CCC[C@@]2(CCN(c3ncccn3)C2)C1" please.
Result: 8.43% (inactive)

Ask: Specify activity change, negative = inhibition for "CCNc1ncc2ncc(=O)n(CCOC)c2n1" and stop.
Result: 4.31% (inactive)

Ask: Provide only the value of recorded activity change, negative = inhibition for "CS(=O)(=O)N1CCC2(CCN(Cc3ccncc3)CC2)CC1"
Result: -4.26% (inactive)

Ask: State, in one line, measured activity change, negative = inhibition of "CN(C)c1ncc2nc(-c3ccc(F)cc3)c(=O)n(C)c2n1"
Result: 2.27% (inactive)
